Target: T1, CD154 (human, UniProt P29965 113-261, limits assumed)
T1 construct: also called CD40 ligand; CD40L
T1 sequence (looked up): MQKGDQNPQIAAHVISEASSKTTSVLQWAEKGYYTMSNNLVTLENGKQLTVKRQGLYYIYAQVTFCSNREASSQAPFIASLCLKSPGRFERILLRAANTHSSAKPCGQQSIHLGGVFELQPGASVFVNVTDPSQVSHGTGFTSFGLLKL
Test: ELISA-based competitive binding assay; unlabeled Fab against biotin-labeled 5c8 Fab competitor
// ELISA fold-improvement over wildtype lookup, one value per entry
Write the answer as a number in fold over wildtype, unit excluded.

Worked set:
5c8 Fab Mutant #2 (heavy chain Y33W) (Fab, V domains shown, Fab fragment) VH: QVQLVQSGAEVVKPGASVKLSCKASGYIFTSYWMYWVKQAPGQGLEWIGEINPSNGDTNFNEKFKSKATLTVDKSASTAYMELSSLRSEDTAVYYCTRSDGRNDMDSWGQGTLVTVSS VL: DIVLTQSPATLSVSPGERATISCRASQRVSSSTYSYMHWYQQKPGQPPKLLIKYASNLESGVPARFSGSGSGTDFTLTISSVEPEDFATYYCQHSWEIPPTFGGGTKLEIK: 7
5c8 Fab Mutant #1 (heavy chain T30H) (Fab, V domains shown, Fab fragment) VH: QVQLVQSGAEVVKPGASVKLSCKASGYIFHSYYMYWVKQAPGQGLEWIGEINPSNGDTNFNEKFKSKATLTVDKSASTAYMELSSLRSEDTAVYYCTRSDGRNDMDSWGQGTLVTVSS VL: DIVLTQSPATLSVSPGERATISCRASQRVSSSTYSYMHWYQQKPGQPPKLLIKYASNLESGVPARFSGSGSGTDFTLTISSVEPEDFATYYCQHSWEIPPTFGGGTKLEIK: 2.3
5c8 Fab Mutant #13 (heavy chain N59L) (Fab, V domains shown, also called Asn59Leu) VH: QVQLVQSGAEVVKPGASVKLSCKASGYIFTSYYMYWVKQAPGQGLEWIGEINPSNGDTLFNEKFKSKATLTVDKSASTAYMELSSLRSEDTAVYYCTRSDGRNDMDSWGQGTLVTVSS VL: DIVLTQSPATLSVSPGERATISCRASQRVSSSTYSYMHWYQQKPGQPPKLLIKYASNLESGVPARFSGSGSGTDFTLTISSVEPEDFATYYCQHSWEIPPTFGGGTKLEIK: 0.01
5c8 Fab Mutant #11 (heavy chain Y33F) (Fab, V domains shown) VH: QVQLVQSGAEVVKPGASVKLSCKASGYIFTSYFMYWVKQAPGQGLEWIGEINPSNGDTNFNEKFKSKATLTVDKSASTAYMELSSLRSEDTAVYYCTRSDGRNDMDSWGQGTLVTVSS VL: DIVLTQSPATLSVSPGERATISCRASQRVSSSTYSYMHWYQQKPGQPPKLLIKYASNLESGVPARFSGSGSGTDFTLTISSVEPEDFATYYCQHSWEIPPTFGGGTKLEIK: 0.05

Could you now look at the following binder, please?
// recorded ELISA fold-improvement over wildtype for 5c8 Fab Mutant #10 (light chain Y54E) (Fab, V domains shown) VH: QVQLVQSGAEVVKPGASVKLSCKASGYIFTSYYMYWVKQAPGQGLEWIGEINPSNGDTNFNEKFKSKATLTVDKSASTAYMELSSLRSEDTAVYYCTRSDGRNDMDSWGQGTLVTVSS VL: DIVLTQSPATLSVSPGERATISCRASQRVSSSTYSYMHWYQQKPGQPPKLLIKEASNLESGVPARFSGSGSGTDFTLTISSVEPEDFATYYCQHSWEIPPTFGGGTKLEIK : 0.06

The reported measurements were obtained from patent US20140220031A1.
